The following molecules are listed with their measured nuclei count values.
procedure.details: reduction of polyQ htt aggregates in cells – imaging, exon1htt(103Q)mCFP cells, high-content imaging, primary screen (AID 483);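 also: compound exposure lasted 3 days before fixation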;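 as to nuclei count: percent of the per-plate median nuclei count of sample wells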
measurement.setup: exon1htt(103Q)mCFP cell line, aggregate imaging, at 2 µM; measured here: cell count, toxicity
Please append the unit to your numeric answer.

Use these answered entries as a reference point.
Looking for the measured nuclei count of COCCOC(=O)c1c(C)oc2ccc(NS(=O)(=O)c3ccc(F)cc3)cc12 , can you help? 123%

Looking for the measured nuclei count of CCN1CCN(C(c2cccs2)C(C)NC(=O)c2ccccc2)CC1 (stereo not given) , can you help? 102%

Looking for the measured nuclei count of Cc1ccc(C)c(N2CCN(C(=O)CCCn3c(=S)[nH]c4cc5c(cc4c3=O)OCO5)CC2)c1 , can you help? 109%

***
Looking for the measured nuclei count of CCOc1ccccc1NC(=O)CCN1CCN(S(=O)(=O)c2ccc(Br)cc2)CC1 , can you help? 117%

Looking for the measured nuclei count of O=C(O)c1cccn2c(=O)c3ccccc3nc12 , can you help? 84.3%

====

procedure.details: inhibitors of TNFa-induced NFkB p65 translocation, primary screen, imaging, HUVEC, MLSMR starter and 10KST1 sets (AID 438);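 also: compound added about 3h40 before a 20 min TNFalpha stimulation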
measurement.setup: HUVEC TNFa-induced p65 nuclear translocation; measured here: nuclei count (cytotoxicity indicator), at 2.08 µM
Please assign a class to every record based on measured cell count, with ranges bottom end = under 400, midrange = from 400 up to 600, top end = 600 and over

Examples from the recorded data:
Lab note: sort Cc1cc(N2CCOCC2)nc2ccc(NC(=O)C3CCC(C)CC3)cc12 (stereo not drawn) into the matching cell count band. midrange

Lab note: sort Cc1cccc2sc(NC(=O)Cn3cccc3)nc12 into the matching cell count band. midrange

Lab note: sort CCc1[nH]nc2c1C(c1ccncc1)C(C#N)=C(N)O2 (stereo not drawn) into the matching cell count band. bottom end

Lab note: sort Cc1cc(C)c(NC(=O)Cn2cc3c(n2)CCCC3)c(C)c1 into the matching cell count band. top end

Lab note: sort N#Cc1ccc(CSc2nnc(-c3cccs3)n2-c2ccccc2)cc1 into the matching cell count band. bottom end

Lab note: sort CN(C)CCCNC(=O)c1ccc(CN(c2ccccc2)S(C)(=O)=O)cc1 into the matching cell count band. top end

Lab note: sort Cc1ccc(Cn2c(CN3CCOCC3)nc3c2c(=O)n(C)c(=O)n3C)cc1 into the matching cell count band. bottom end

Lab note: sort CCCN1CC23C=CC(O2)C(C(=O)O)C3C1=O (stereo not drawn) into the matching cell count band. top end

***
Lab note: sort CC(C)CCNC(=O)C(C)N(Cc1ccc(F)cc1)C(=O)c1ccc(CN2CCCCC2)o1 (stereo not drawn) into the matching cell count band. bottom end

====

procedure.details: endothelial E-selectin expression blockers – imaging, HUVEC, immunofluorescence, MLSMR starter and 10KST1 sets, primary screen (AID 487);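 as to inhibition: signal is fraction of cell area covered by stained E-selectin grains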
measurement.setup: HUVEC TNFalpha-induced E-selectin immunofluorescence imaging, at 2 µM; stronger effect = higher value
The following molecules are listed with their measured inhibition values.
Field format: number, assumed %, no unit text.

Looking for the measured inhibition of c1cc(CNc2ccc3c(c2)OCO3)ccn1 , can you help? -91.7

***
Looking for the measured inhibition of O=C(c1cc(C2CC2)on1)N1CCN(C(c2ccccc2)c2ccccc2)CC1 , can you help? -61

Looking for the measured inhibition of CCOC(=O)C1CSC(CC(=O)Nc2ccc(Cl)cc2)C(=O)N1 (centres undefined) , can you help? -56.7

Looking for the measured inhibition of CC(C)CN(C(=O)COC(=O)Cc1n[nH]c(=O)c2ccccc12)C1CCS(=O)(=O)C1 (centres undefined) , can you help? -65.6

Looking for the measured inhibition of O=C(O)C1C2CCC(O2)C1C(=O)NCCC1=CCCCC1 (centres undefined) , can you help? -112

Looking for the measured inhibition of CCOC(=O)Nc1ccc(NS(=O)(=O)c2ccc(C)cc2)cc1 , can you help? -108

Looking for the measured inhibition of CC(=O)Nc1c2c(nn1-c1ccc(C)cc1C)CSC2 , can you help? 33.7

====

procedure.details: endothelial E-selectin expression blockers – imaging, HUVEC, immunofluorescence, MLSMR starter and 10KST1 sets, primary screen (AID 487);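 as to inhibition: signal is fraction of cell area covered by stained E-selectin grains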
measurement.setup: HUVEC TNFalpha-induced E-selectin immunofluorescence imaging, at 2 µM; stronger effect = higher value
Active and inactive are the calls of the source.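 The calls were made as follows: active = visually confirmed hit in the image check and inhibition above 20%; inconclusive = visually confirmed hit but inhibition not above 20%; inactive = no visual hit in the image check.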
The following compounds are listed with their measured inhibition values.

Looking for the measured inhibition of C=CCn1c(Br)nc2c1c(=O)[nH]c(=O)n2C , can you help? -62% (inactive)

Looking for the measured inhibition of COc1ccc(NC(=O)COc2ccccc2)c(OC)c1 , can you help? 1.1% (inactive)

Looking for the measured inhibition of COc1ccc2c(c1)C(C)=CC(C)(C)N2C(=O)C(C)N1C(=O)c2ccccc2C1=O (stereo unspecified) , can you help? 21.2% (inactive)

Looking for the measured inhibition of COc1ccc(OCC(=O)N2CC3(C)CC2CC(C)(C)C3)cc1 (stereo unspecified) , can you help? -55.8% (inactive)

***
Looking for the measured inhibition of C=CCSc1nc(N)c(C(=O)Nc2ccccc2C)cc1C(N)=O , can you help? -142% (inactive)

Looking for the measured inhibition of CCC(Sc1ncccc1C(=O)O)C(=O)N1CCCC1 (stereo unspecified) , can you help? 5% (inactive)

Looking for the measured inhibition of CCCCc1cc(=O)oc2cc(OCC(=O)N(CC)CC)c(Cl)cc12 , can you help? -56.9% (inactive)

Looking for the measured inhibition of COc1ccc(-n2c(=O)c3c4c(sc3n3cnnc23)CC(C)CC4)cc1 (stereo unspecified) , can you help? -108% (inactive)

Looking for the measured inhibition of CCCCN=CC1=C(O)C(C(=O)OC)C(C)(C)CC1=O (stereo unspecified) , can you help? -21.7% (inactive)

Looking for the measured inhibition of CCCNc1nc2c(c(=O)n(C)c(=O)n2C)n1Cc1cccc(C)c1 , can you help? -95.3% (inactive)

Looking for the measured inhibition of Cc1nnc(NC(=O)c2ccco2)s1 , can you help? -34.3% (inactive)

Looking for the measured inhibition of O=C(Nc1ccccc1)c1cnc2n(c1=O)CCS2 , can you help? -25.4% (inactive)

Looking for the measured inhibition of CCOCC(=O)Nc1nc2c(s1)C(=O)CC(C)(C)C2 , can you help? -70.4% (inactive)

Looking for the measured inhibition of COCCNC(=O)CC(NS(=O)(=O)c1ccc(NC(C)=O)cc1)C(C)C (stereo unspecified) , can you help? -122% (inactive)

====

procedure.details: endothelial E-selectin expression blockers – imaging, HUVEC, immunofluorescence, MLSMR starter and 10KST1 sets, primary screen (AID 487);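 as to nuclei count: 100% = median nuclei count of all wells on the same plate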
measurement.setup: HUVEC TNFalpha-induced E-selectin immunofluorescence imaging, at 2 µM; measured here: cell number, toxicity
The following molecules are listed with their measured nuclei count values.
Field format: number, assumed %, no unit text.

Looking for the measured nuclei count of Cc1ccc(-c2nc3cnccn3c2Nc2ccc3c(c2)OCO3)o1 , can you help? 114

Looking for the measured nuclei count of CCOC(=O)C1CCCN(C/C(O)=C(\C#N)c2nc(-c3ccc(Cl)cc3)cs2)C1 (stereo not given) , can you help? 120

Looking for the measured nuclei count of COc1ccccc1NC1=NC(c2ccc(Cl)cc2)N=C(N)N1 (stereo not given) , can you help? 124

Looking for the measured nuclei count of CCOc1cc(-c2nc(-c3ccccc3OC)no2)cc(OCC)c1OCC , can you help? 109

Consider the additional molecule presented here.
Looking for the measured nuclei count of CCOC(=O)N1CCC(N2C(=O)c3ccccc3C2Nc2ccc3c(C)cc(=O)oc3c2)CC1 (stereo not given) , can you help? 121

====

procedure.details: reduction of polyQ htt aggregates in cells – imaging, exon1htt(103Q)mCFP cells, high-content imaging, primary screen (AID 483);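 also: compound exposure lasted 3 days before fixation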
measurement.setup: exon1htt(103Q)mCFP cell line, aggregate imaging, at 2 µM; stronger effect = higher value
reported.metric: inhibition of aggregation (%)
Field format: number, assumed %, no unit text.

Looking for the measured inhibition of aggregation of COc1ccc(CN(C2CCCC2)S(=O)(=O)c2ccc(-n3cnnn3)cc2)cc1OC , can you help? -15

Looking for the measured inhibition of aggregation of Cc1cc(NC(=O)c2ccccc2)ncc1NC(=O)c1ccco1 , can you help? 11.4

Looking for the measured inhibition of aggregation of COc1nc(C)ccc1-c1noc(-c2ccncc2)n1 , can you help? -7.3

Looking for the measured inhibition of aggregation of Cc1sc2nc(CN3CCN(S(=O)(=O)c4cccc5nonc45)CC3)[nH]c(=O)c2c1C , can you help? 11.8

====

procedure.details: inhibitors of TNFa-induced NFkB p65 translocation, primary screen, imaging, HUVEC, MLSMR starter and 10KST1 sets (AID 438);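 also: compound added about 3h40 before a 20 min TNFalpha stimulation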
measurement.setup: HUVEC TNFa-induced p65 nuclear translocation; measured here: nuclei count (cytotoxicity indicator), at 2.08 µM
reported.metric: cell count
Please respond with just the number, no unit label.

Looking for the measured cell count of CCOC(=O)C1(C)NC(c2ccc(OC)c(OC)c2)C2C(=O)N(CC)C(=O)C21 (stereo unspecified) , can you help? 369

Looking for the measured cell count of COc1ccc(N2CCN(C(=O)COc3ccc4ccccc4c3)CC2)cc1 , can you help? 737

Looking for the measured cell count of COC(=O)c1cnc2c(C(F)(F)F)cccc2c1OC , can you help? 595

Looking for the measured cell count of Cc1nn(Cc2ccc(C(=O)NC3CCCCC3)o2)c(C)c1Br , can you help? 463

Looking for the measured cell count of CC(=O)N1CCN(c2ccc(N=Cc3c(O)n(Cc4ccccc4)c(=O)[nH]c3=O)cc2)CC1 , can you help? 344

***
Looking for the measured cell count of O=c1c2cc(Cl)ccc2[nH]c(=S)n1Cc1ccco1 , can you help? 439

All values here come from PubChem BioAssay.
